Give measured OD (PE binding ELISA) for each item. Keep answers brief.
Target: T1, human IL-2Rα (human, UniProt P01589 22-240, limits assumed)
T1 construct: recombinant protein; also called hu IL-2R; human IL-2Ra
T1 sequence: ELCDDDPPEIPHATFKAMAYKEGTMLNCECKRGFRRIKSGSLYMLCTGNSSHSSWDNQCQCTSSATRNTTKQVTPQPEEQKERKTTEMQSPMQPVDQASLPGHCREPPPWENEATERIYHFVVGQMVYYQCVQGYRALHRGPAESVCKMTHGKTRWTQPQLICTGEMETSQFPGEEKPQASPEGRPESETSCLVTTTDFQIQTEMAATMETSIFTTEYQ
Experiment: ELISA, P.E. on coated antigen
Kindly provide the numeric value in OD450 nm only, without the unit symbol.

Item FJ1427_P035MP01D04 (VHH, periplasmic extract; also called clone nr; 28) VHH: QVQLVESGGGWVQPGDSLRLSCAASGRSFRNYVMGWFRQVPGKEREFLSVITWLGGTLDADSVADRFTISRDNSKNTVYLQMDSLKPEDTAVYYCAADRGPARYISASDVDYWGQGTQVTVSS has what recorded OD (PE binding ELISA)?
2.76

Item FJ1427_P035MP01C11 (VHH, periplasmic extract; also called clone nr; 83) VHH: QVQLVESGGGLVQAGGSLRLSCAASGGTFRTRNMGWFRRAPGKEREFVAAVSWNVDNKLYAGSVKGRFTISRDNGRNMVYLQMNSLKPEDTAVYYCAADNIPLSSDMRPTATEYDYWGQGTQVTVSS has what recorded OD (PE binding ELISA)?
2.78

Item FJ1427_P035MP05H09 (VHH, periplasmic extract; also called clone nr) VHH: QLQLVESGGDLVQPGGSLRLSCTASGLTFDGYAIGWFRQAPGKEREGVSYITGSNGSTYYIDSVKGRFTISSDIAKSTVYLQMNTLKPEDTAVYYCAVDRLGSRGLYASSWWRSGDMDLWGKGTLVTVSS has what recorded OD (PE binding ELISA)?
2.26

Item FJ1427_P035MP01E11 (VHH, periplasmic extract; also called clone nr; 85) VHH: QVQLVESGGGLVQPGGSLRLSCAASGFTFSNNFMSWVRQAPGKGLEWVSTISYFGDSTRYAESVKGRFTISRDNEKNTLYLQMNNLKPEDTAVYYCAKATSYDSIRSGSRGRGTQVTVSS has what recorded OD (PE binding ELISA)?
2.69
